- Tested on: turtle Estrogen Receptor (ESR1), gene 101933533
- Test: ATG_trERa_XSP1: Attagene TRANS-FACTORIAL Multi-Species (XSP1) HepG2 Assay for turtle Estrogen Receptor (ESR1) (AID 2283781)
Records with an inconclusive call do not appear. Active and inactive are the calls of the source. How the source made its calls: active means hit-call score of the fitted dose curve at least 0.9, where 1 is the maximum; inconclusive means response in the unintended direction; inactive means score below 0.9.
Answer with one of the outcomes label 1 for active, label 0 for inactive

Example results:
Request: Outcome? CC1(C)CCC(Cc2ccc(Cl)cc2)C1(O)Cn1cncn1 (centres undefined)
Response: label 0

Request: Quick one: CC(C)(C)CC(C)(C)c1ccc(O)cc1
Response: label 1

Request: Next up: CC12CC1(C)C(=O)N(c1cc(Cl)cc(Cl)c1)C2=O (centres undefined)
Response: label 1

More entries:
Request: What did the test return for C[C@]12CCC(=O)C[C@@H]1CC[C@@H]1[C@@H]2CC[C@]2(C)[C@@H](O)CC[C@@H]12 ?
Response: label 0

---

- Read-out: ABC Transporter (ABCB11), ABCB11 (gene 8647)
- Test: LTEA_HepaRG_ABCB11: Life Technologies and Expression Analysis (LTEA) Assay for ABC Transporter (ABCB11) using HepaRG (AID 2283463)
- Measurement Context: mRNA level, 48 h; actives raise or lower the signal
Active and inactive are the calls of the source. The calls were made as follows: active = hit-call score of the fitted dose curve at least 0.9, where 1 is the maximum; inactive = score below 0.9.
Classes to choose from: label 1 (active), label 0 (inactive)

Please review the following examples before continuing.
Request: GET /call?item= CC(=O)[O][Hg][c]1ccccc1 returns the recorded outcome of this test.
Response: label 1

Request: And O=C(Nc1ccc2[nH]ccc2c1)c1cc2cc(F)ccc2n1Cc1cccc(F)c1 ?
Response: label 1

More entries:
Request: Hi team, can someone confirm the assay call for C=CC(=O)OCCCCCC(C)C ?
Response: label 0

Request: Follow-up entry: ClC1(Cl)C2(Cl)C3(Cl)C4(Cl)C(Cl)(Cl)C5(Cl)C3(Cl)C1(Cl)C5(Cl)C24Cl (stereo not drawn)
Response: label 0

Request: Queued: CCOP(=S)(OCC)SCSP(=S)(OCC)OCC
Response: label 0

Request: What do we get for ClCC(Cl)CCl ?
Response: label 0

Request: Next entry: CC(C)(c1ccccc1)c1ccc(O)c(C(C)(C)c2ccccc2)c1
Response: label 1

Request: Also need O=[N+]([O-])c1ccc(O)c([N+](=O)[O-])c1 , thanks.
Response: label 1

Request: What do you have for CCC(C)(C)c1ccc(O)c(C(C)(C)CC)c1 ?
Response: label 0

Request: Thanks! And O=C(O)C(F)(F)C(F)(F)C(F)(F)C(F)(F)C(F)(F)C(F)(F)F ?
Response: label 0

Request: Follow-up entry: CC(C)(OO)c1ccccc1
Response: label 0

Request: Can you handle Oc1cccc2cccnc12 next?
Response: label 0

Request: Follow-up entry: CC(C)(C)CC(C)(C)c1ccc(O)cc1
Response: label 0

---

- Experimental Target: Bile acid receptor (Homo sapiens)
- Test: OT_FXR_FXRSRC1_1440: Odyssey Thera (OT) 24-hour HEK293T Protein-Complementation Assay for Farnesoid X receptor/SRC-1 Co-activator (AID 2283384)
Results filed as inconclusive are left out. Calls of active or inactive are those of the source. Rule for the calls: active = hit-call score of the fitted dose curve at least 0.9, where 1 is the maximum; inconclusive = response in the unintended direction; inactive = score below 0.9.
Recorded Metric: AC50

# count of solved cases: 4
Request: Which AC50 is listed for CC(C)(C)c1cc(O)ccc1O ?
Response: 62.2 µM (active)

Request: What do you get for Fc1ccc(C2(Cn3cncn3)OC2c2ccccc2Cl)cc1 (centres undefined) ?
Response: 18.9 µM (active)

Request: Then this compound: C=C(C)C(=O)[O][Sn]([CH2]CCC)([CH2]CCC)[CH2]CCC
Response: inactive

Request: Another compound to check: C=CC(=O)OCCCCCC(C)C
Response: inactive

Next, consider the following compound.
Request: Could you share which AC50 value was measured for Cn1sc(Cl)cc1=O ?
Response: inactive

---

- Read-out: Monokine induced gamma interferon (MIG), CXCL9 (gene 4283)
- Test: BSK_CASM3C_MIG: BioMAP Diversity Plus: CASM3C Assay for Monokine induced gamma interferon (MIG) Biomarker Activity (AID 2283048);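 further: MIG protein level measured by ELISA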
- Measurement Context: primary human coronary artery smooth muscle cells; actives raise or lower the signal
Activity calls are given as the source filed them. The calls were made as follows: active = hit-call score of the fitted dose curve at least 0.9, where 1 is the maximum; inactive = score below 0.9.
Choose the fitting class; nothing outside 1 (yes) for active, 0 (no) for inactive is accepted.

Request: Tell me the recorded outcome of this test for COc1cc(OC)nc(NC(=O)NS(=O)(=O)c2ncccc2C(=O)N(C)C)n1 .
Response: 0 (no)

Request: Same question, CN(C)N=O this time
Response: 0 (no)

Request: Now try CCOC(=O)/C=C(C)/C=C/C[C@@H](C)CCCC(C)C .
Response: 1 (yes)

Here's the next entry for you.
Request: Test call, this compound: Oc1c(I)cc(I)cc1I
Response: 0 (no)

---

- Experimental Target: Oxysterols receptor LXR-alpha (Homo sapiens) (UniProt Q13133)
- Sequence (Q13133 whole entry, looked up): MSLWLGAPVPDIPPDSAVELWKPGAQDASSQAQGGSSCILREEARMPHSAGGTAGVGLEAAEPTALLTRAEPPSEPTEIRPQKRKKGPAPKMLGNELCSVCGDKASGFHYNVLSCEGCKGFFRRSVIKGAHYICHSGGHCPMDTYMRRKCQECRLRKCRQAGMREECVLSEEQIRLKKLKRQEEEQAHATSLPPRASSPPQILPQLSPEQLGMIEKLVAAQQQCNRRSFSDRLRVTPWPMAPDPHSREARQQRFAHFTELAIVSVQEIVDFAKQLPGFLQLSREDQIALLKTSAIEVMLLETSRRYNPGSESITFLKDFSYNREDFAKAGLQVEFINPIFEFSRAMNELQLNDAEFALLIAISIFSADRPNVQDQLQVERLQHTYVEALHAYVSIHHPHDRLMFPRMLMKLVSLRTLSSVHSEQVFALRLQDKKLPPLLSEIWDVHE
- Test: ATG_LXRa_TRANS: Attagene TRANS-FACTORIAL HepG2 Assay for human Liver X Receptor alpha (LXRa) (AID 2282980)
- Measurement Context: HepG2 Attagene TRANS reporter, LXRa transactivation
Results filed as inconclusive are left out. Calls of active or inactive are those of the source. Rule for the calls: active = hit-call score of the fitted dose curve at least 0.9, where 1 is the maximum; inconclusive = response in the unintended direction; inactive = score below 0.9.
Recorded Metric: AC50

Request: Consider the compound shown here: O=C(O)C(Cl)(Cl)Cl What is its recorded AC50?
Response: inactive

Request: Follow-up entry: CCOP(=S)(OCC)SCSP(=S)(OCC)OCC
Response: 7.73 µM (active)

Request: Ok, now CCOC(=O)CP(=O)(OCC)OCC
Response: inactive

Request: Do the same for O=C1C2(Cl)C3(Cl)C4(Cl)C(Cl)(Cl)C5(Cl)C3(Cl)C1(Cl)C5(Cl)C24Cl (centres undefined) please
Response: inactive

Continuing:
Request: Quick one: AC50 of Cc1ccc(N)cc1Cl ?
Response: inactive

Request: Could you do the same for CC1(C)CCC(Cc2ccc(Cl)cc2)C1(O)Cn1cncn1 (centres undefined) , please?
Response: inactive

Request: Record: [O-][Cl+2]([O-])O
Response: inactive

Request: Okay, and CCC(C)(C)c1ccc(O)c(C(C)(C)CC)c1 ?
Response: 9.67 µM (active)

---

- Test system: guinea pig Dopamine Transporter (DAT), gene 100714898
- Test: NVS_TR_gDAT: NovaScreen (NVS) Transporter Assay for guinea pig Dopamine Transporter (DAT) (AID 2283369);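 further: active compounds lower bound radioligand signal relative to DMSO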
Inconclusive results are not listed. Calls of active or inactive are those of the source. The calls were made as follows: active = hit-call score of the fitted dose curve at least 0.9, where 1 is the maximum; inconclusive = response in the unintended direction; inactive = score below 0.9.
Use one of these outcomes when replying: 1 = active, 0 = inactive

Request: Called result for CC(C)(C)CC(C)(C)c1ccc(O)cc1
Response: 0

Request: How about CCN1CCC2(CC1)COc1cc3c(cc12)N(C(=O)c1ccc(-c2ccc(-c4nnc(C)o4)cc2C)cc1)CC3 ?
Response: 1

Request: Another compound: C=C(C)C(=O)[O][Sn]([CH2]CCC)([CH2]CCC)[CH2]CCC
Response: 1

Next, consider the following compound.
Request: Tell me the recorded outcome of this test for Nc1ccc(Cl)cc1C(=O)c1ccccc1 .
Response: 1

---

- Test: BSK_SAg_SRB: Viability Assessment in the BioMAP Diversity Plus: SAg Assay (AID 2283096);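 further: cells read one day after compound addition; hits may be either gain or loss of signal compared with DMSO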
- Measurement Context: primary human HUVEC with PBMC
Active and inactive are the calls of the source. Rule for the calls: active = hit-call score of the fitted dose curve at least 0.9, where 1 is the maximum; inactive = score below 0.9.
Recorded Metric: AC50

Recorded AC50, per entry:
Request: I am curious: what AC50 value has been reported for CC(C)CCCCCCOC(=O)c1ccccc1C(=O)OCCCCCCC(C)C ?
Response: 0.206 µM (active)

Request: Now the molecule Oc1ccc(-c2ccccc2)cc1
Response: inactive

Request: Next up: ClC1=C(Cl)[C@]2(Cl)[C@H]3[C@H]([C@H]4C=C[C@H]3C4)[C@@]1(Cl)C2(Cl)Cl
Response: 5.42 µM (active)

Request: Likewise for O=S(=O)(c1ccc(Cl)cc1)c1ccc(Cl)cc1 ?
Response: inactive

Request: What about this molecule? COC(=O)Cc1ccccc1
Response: inactive

New cases:
Request: What does the data say about its AC50? Entry: NC(=S)Nc1ccccc1
Response: inactive

Request: Lookup BrCCBr
Response: inactive

Request: Repeat for the following molecule: CCOC(=O)/C=C(C)/C=C/C[C@@H](C)CCCC(C)C
Response: 33.1 µM (active)

Request: Can you handle CCOP(=S)(OCC)Oc1ccc(S(C)=O)cc1 (stereo not drawn) next?
Response: inactive

Request: Please do the same for COP(=S)(OC)Oc1c(Cl)cc(C)cc1Cl as well.
Response: inactive

---

- Read-out: Collagen III, COL3A1 (gene 1281)
- Test: BSK_MyoF_CollagenIII: BioMAP Diversity Plus: MyoF Assay for Collagen III Biomarker Activity (AID 2284239)
- Measurement Context: primary human lung fibroblasts
Activity calls are given as the source filed them. How the source made its calls: active means hit-call score of the fitted dose curve at least 0.9, where 1 is the maximum; inactive means score below 0.9.
Lab note: assign the record to one of active, inactive

Request: Can you look up the reported call for CCNc1nc(NC(C)(C)C)nc(SC)n1 for me?
Response: inactive

Request: Now give it for COP(=S)(OC)Oc1ccc(S(=O)(=O)N(C)C)cc1 too.
Response: inactive

Request: Moving on to CCSC(C)CC1CC(=O)C(C(CC)=NOC/C=C/Cl)=C(O)C1 (configuration not stated)
Response: inactive

Request: Queued: O=C(OC1CCCCC1)c1ccccc1C(=O)OC1CCCCC1
Response: active

Request: What do we get for OCc1ccco1 ?
Response: inactive

Request: Another compound: O=Cc1cccc(Oc2ccccc2)c1
Response: inactive

Let us examine a further case.
Request: So what was the verdict on COP(=S)(OC)Oc1cc(Cl)c(Cl)cc1Cl in this test?
Response: inactive

From: PubChem BioAssay (EPA / NIEHS)
